Below, each of the molecules is paired with its reported Ki value.
- test system: delta-opioid receptor (DOR) (Rattus norvegicus, UniProt P33533)
- Construct: Rat cortices were homogenized using 50 mM Tris, pH 7.4, 10 mM MgCl2-6H2O, 200 µM PMSF; from tissue; host or cells: rat cortex membranes
- test details: DOR radioligand competition binding assay ([3H]-DPDPE)
- experimental setup: Delta screening results, first Ki column; unit not printed (apparently M); read-out: Ki (first column)
recorded endpoint: Ki (µM)

| molecular string | reading unit | numeric value |
| --- | --- | --- |
| N=C1NC[C@H](Cc2ccccc2)N1C[C@H](Cc1ccccc1)N1C[C@H](Cc2ccc(O)cc2)NC1=N | µM | 6.92 |
| CC(C)C[C@H]1CN([C@@H](Cc2ccccc2)CN2C(=N)NC[C@@H]2Cc2ccc(O)cc2)C(=N)N1 | µM | 4.23 |
| N=C1NC[C@H](Cc2ccc(O)cc2)N1C[C@H](Cc1ccc(O)cc1)N1C[C@H](Cc2ccccc2)NC1=N | µM | 7.83 |
| Cc1cc(O)cc(C)c1C[C@H]1CN([C@@H](CC(C)C)CN2C(=N)NC[C@@H]2C)C(=N)N1 | µM | 10.2 |
| Cc1cc(O)cc(C)c1C[C@H]1CN([C@@H](Cc2c(C)cc(O)cc2C)CN2C(=N)NC[C@@H]2Cc2ccc(O)cc2)C(=N)N1 | µM | 0.469 |
| N=C1NC[C@H](Cc2ccccc2)N1C[C@H](Cc1ccccc1)N1C[C@H](Cc2ccccc2)NC1=N | µM | 7.34 |
| C[C@H]1CNC(=N)N1C[C@H](Cc1ccccc1)N1C[C@H](Cc2ccc(O)cc2)NC1=N | µM | 5.14 |
| Cc1cc(O)cc(C)c1C[C@H]1CNC(=N)N1C[C@H](CC(C)C)N1C[C@H](CC(C)C)NC1=N | µM | 3.84 |
| Cc1cc(O)cc(C)c1C[C@H]1CN([C@@H](Cc2ccc(O)cc2)CN2C(=N)NC[C@@H]2Cc2c(C)cc(O)cc2C)C(=N)N1 | µM | 1.33 |
| Cc1cc(O)cc(C)c1C[C@H]1CNC(=N)N1C[C@H](Cc1ccc(O)cc1)N1C[C@H](Cc2ccc(O)cc2)NC1=N | µM | 3.55 |
| CC(C)C[C@@H](CN1C(=N)NC[C@@H]1Cc1ccc(O)cc1)N1C[C@H](Cc2ccccc2)NC1=N | µM | 25.4 |

====

- test system: mu-opioid receptor (MOR) (Rattus norvegicus, UniProt P33535)
- Construct: Rat cortices were homogenized using 50 mM Tris, pH 7.4, and centrifuged at 16,500 rpm for 10 min; from tissue; host or cells: rat cortex membranes
- test details: MOR radioligand competition binding assay ([3H]-DAMGO)
- experimental setup: Mu screening results, experiment 1; unit inferred; read-out: Ki (Exp 1)
- Experimental: MOR binding assay: Rat cortices were homogenized using 50 mM Tris, pH 7.4, and centrifuged at 16,500 rpm for 10 min. The pellets were resuspended in fresh buffer and incubated at 37 °C for 30 min. […] All three binding assays were terminated by filtration through GF/B filters, soaked in 5 mg/mL bovine serum albumin, 50 mM Tris, pH 7.4, on a Tomtec Mach II Harvester 96. […] Bound radioactivity was counted on a Wallac Betaplate Liquid Scintillation Counter. […]
pKi: −log10 of the molar value.

| molecular string | test system | pKi |
| --- | --- | --- |
| Cc1cc(O)cc(C)c1C[C@H]1CNC(=N)N1C[C@H](Cc1c(C)cc(O)cc1C)N1C[C@H](Cc2ccc(O)cc2)NC1=N | mu-opioid receptor (MOR) (Rattus norvegicus, UniProt P33535) | 7.19 |
| Cc1cc(O)cc(C)c1C[C@@H](CN1C(=N)NC[C@@H]1Cc1ccc(O)cc1)N1C[C@H](Cc2ccc(O)cc2)NC1=N | mu-opioid receptor (MOR) (Rattus norvegicus, UniProt P33535) | 7.01 |
| Cc1cc(O)cc(C)c1C[C@H]1CNC(=N)N1C[C@H](Cc1c(C)cc(O)cc1C)N1C[C@H](CC(C)C)NC1=N | mu-opioid receptor (MOR) (Rattus norvegicus, UniProt P33535) | 7.20 |
| Cc1cc(O)cc(C)c1C[C@H]1CN([C@@H](Cc2c(C)cc(O)cc2C)CN2C(=N)NC[C@@H]2Cc2ccccc2)C(=N)N1 | mu-opioid receptor (MOR) (Rattus norvegicus, UniProt P33535) | 7.05 |
| Cc1cc(O)cc(C)c1C[C@H]1CN([C@@H](Cc2c(C)cc(O)cc2C)CN2C(=N)NC[C@@H]2Cc2ccc(O)cc2)C(=N)N1 | mu-opioid receptor (MOR) (Rattus norvegicus, UniProt P33535) | 6.97 |
| Cc1cc(O)cc(C)c1C[C@H]1CN([C@@H](Cc2ccccc2)CN2C(=N)NC[C@@H]2Cc2ccc(O)cc2)C(=N)N1 | mu-opioid receptor (MOR) (Rattus norvegicus, UniProt P33535) | 7.13 |
| Cc1cc(O)cc(C)c1C[C@H]1CNC(=N)N1C[C@H](Cc1ccccc1)N1C[C@H](Cc2ccc(O)cc2)NC1=N | mu-opioid receptor (MOR) (Rattus norvegicus, UniProt P33535) | 7.21 |
| Cc1cc(O)cc(C)c1C[C@H]1CN([C@@H](CC(C)C)CN2C(=N)NC[C@@H]2C)C(=N)N1 | mu-opioid receptor (MOR) (Rattus norvegicus, UniProt P33535) | 6.80 |

====

- test system: kappa-opioid receptor (KOR) (Cavia porcellus)
- Construct: Guinea pig cortices and cerebella were homogenized using 50 mM Tris, pH 7.4; from tissue; host or cells: guinea pig cortex and cerebellum membranes
- test details: KOR radioligand competition binding assay ([3H]U69,593)
- Parameters: species or system guinea pig
- experimental setup: Kappa screening results, mean of Exp 1 and Exp 2; unit inferred; read-out: MEAN (Ki)
Ranges used to classify Ki: lo = under 1000 nM, mid = from 1000 nM up to 4000 nM, hi = 4000 nM and over

| compound | class name |
| --- | --- |
| Cc1cc(O)cc(C)c1C[C@H]1CNC(=N)N1C[C@H](CC(C)C)N1C[C@H](Cc2ccc(O)cc2)NC1=N [1968-58] | lo |
| Cc1cc(O)cc(C)c1C[C@@H](CN1C(=N)NC[C@@H]1Cc1ccccc1)N1C[C@H](Cc2ccccc2)NC1=N [1968-67] | mid |
| CC(C)C[C@H]1CN([C@@H](Cc2ccccc2)CN2C(=N)NC[C@@H]2Cc2ccccc2)C(=N)N1 [1968-3] | hi |
| Cc1cc(O)cc(C)c1C[C@H]1CN([C@@H](Cc2c(C)cc(O)cc2C)CN2C(=N)NC[C@@H]2Cc2ccc(O)cc2)C(=N)N1 [1968-32] | mid |
| C[C@H]1CNC(=N)N1C[C@H](Cc1ccc(O)cc1)N1C[C@H](Cc2ccccc2)NC1=N [1968-37] | mid |
| Cc1cc(O)cc(C)c1C[C@H]1CN([C@@H](Cc2ccccc2)CN2C(=N)NC[C@@H]2Cc2c(C)cc(O)cc2C)C(=N)N1 [1968-52] | mid |
| N=C1NC[C@H](Cc2ccccc2)N1C[C@H](Cc1ccccc1)N1C[C@H](Cc2ccc(O)cc2)NC1=N [1968-2] | hi |
| N=C1NC[C@H](Cc2ccc(O)cc2)N1C[C@H](Cc1ccccc1)N1C[C@H](Cc2ccc(O)cc2)NC1=N [1968-18] | mid |
| C[C@H]1CNC(=N)N1C[C@H](Cc1ccc(O)cc1)N1C[C@H](Cc2ccc(O)cc2)NC1=N [1968-38] | mid |
| Cc1cc(O)cc(C)c1C[C@H]1CNC(=N)N1C[C@H](Cc1ccc(O)cc1)N1C[C@H](CC(C)C)NC1=N [1968-71] | lo |

====

- test system: delta-opioid receptor (DOR) (Rattus norvegicus)
- Construct: Rat cortices were homogenized using 50 mM Tris, pH 7.4, 10 mM MgCl2-6H2O, 200 µM PMSF; from tissue; host or cells: rat cortex membranes
- test details: DOR radioligand competition binding assay ([3H]-DPDPE)
- experimental setup: Delta screening results, second Ki column; unit not printed (apparently M); read-out: Ki (second column)
recorded endpoint: Ki (µM)

| molecule | test system | reading unit | numeric value |
| --- | --- | --- | --- |
| Cc1cc(O)cc(C)c1C[C@H]1CNC(=N)N1C[C@H](CC(C)C)N1C[C@H](Cc2ccccc2)NC1=N [1968-57] | delta-opioid receptor (DOR) (Rattus norvegicus) | µM | 1.07 |
| CC(C)C[C@@H](CN1C(=N)NC[C@@H]1Cc1ccccc1)N1C[C@H](Cc2ccccc2)NC1=N [1968-9] | delta-opioid receptor (DOR) (Rattus norvegicus) | µM | 5.81 |
| Cc1cc(O)cc(C)c1C[C@H]1CN([C@@H](Cc2ccc(O)cc2)CN2C(=N)NC[C@@H]2Cc2ccccc2)C(=N)N1 [1968-4] | delta-opioid receptor (DOR) (Rattus norvegicus) | µM | 1.02 |
| Cc1cc(O)cc(C)c1C[C@H]1CN([C@@H](CC(C)C)CN2C(=N)NC[C@@H]2Cc2c(C)cc(O)cc2C)C(=N)N1 [1968-60] | delta-opioid receptor (DOR) (Rattus norvegicus) | µM | 0.651 |
| CC(C)C[C@@H](CN1C(=N)NC[C@@H]1C)N1C[C@H](Cc2ccc(O)cc2)NC1=N [1968-42] | delta-opioid receptor (DOR) (Rattus norvegicus) | µM | 90.8 |
| Cc1cc(O)cc(C)c1C[C@H]1CN([C@@H](Cc2c(C)cc(O)cc2C)CN2C(=N)NC[C@@H]2C)C(=N)N1 [1968-22] | delta-opioid receptor (DOR) (Rattus norvegicus) | µM | 0.271 |
| Cc1cc(O)cc(C)c1C[C@H]1CNC(=N)N1C[C@H](Cc1c(C)cc(O)cc1C)N1C[C@H](Cc2ccc(O)cc2)NC1=N [1968-62] | delta-opioid receptor (DOR) (Rattus norvegicus) | µM | 1.02 |
| Cc1cc(O)cc(C)c1C[C@H]1CN([C@@H](CC(C)C)CN2C(=N)NC[C@@H]2Cc2ccc(O)cc2)C(=N)N1 [1968-28] | delta-opioid receptor (DOR) (Rattus norvegicus) | µM | 5.34 |
| Cc1cc(O)cc(C)c1C[C@@H](CN1C(=N)NC[C@@H]1Cc1ccccc1)N1C[C@H](CC(C)C)NC1=N [1968-15] | delta-opioid receptor (DOR) (Rattus norvegicus) | µM | 1.44 |
| Cc1cc(O)cc(C)c1C[C@H]1CN([C@@H](Cc2ccc(O)cc2)CN2C(=N)NC[C@@H]2C)C(=N)N1 [1968-40] | delta-opioid receptor (DOR) (Rattus norvegicus) | µM | 1.32 |
| Cc1cc(O)cc(C)c1C[C@@H](CN1C(=N)NC[C@@H]1C)N1C[C@H](CC(C)C)NC1=N [1968-19] | delta-opioid receptor (DOR) (Rattus norvegicus) | µM | 1.01 |
| Cc1cc(O)cc(C)c1C[C@H]1CNC(=N)N1C[C@H](CC(C)C)N1C[C@H](Cc2ccc(O)cc2)NC1=N [1968-58] | delta-opioid receptor (DOR) (Rattus norvegicus) | µM | 0.638 |
| C[C@H]1CNC(=N)N1C[C@H](Cc1ccc(O)cc1)N1C[C@H](Cc2ccc(O)cc2)NC1=N [1968-38] | delta-opioid receptor (DOR) (Rattus norvegicus) | µM | 3.33 |

Provenance of the data: paper PMC9455983
